- Test system: HT-1080.hFAP and HT-1080.wt xenografts
- Method Summary: Quantitative biodistribution in HT-1080.hFAP and HT-1080.wt xenografted mice
- Format: in vivo
- Condition Parameters: 4 h p.i., HT-1080.hFAP and HT-1080.wt xenografts
Readout Name: Biodistribution Blood (% IA/g)
One number for each entry, in % IA/g.

See these solved cases before continuing.
CN(C(=O)CCC(=O)N1CCN(C(=O)CC[C@H](C(=O)O)N2CCN3CCN(CC2)CC(=O)[O][61Cu][O]C(=O)C3)CC1)c1ccc2nccc(C(=O)NCC(=O)N3CC(F)(F)C[C@H]3C#N)c2c1 [[^61Cu]Cu-NODAGA-F4] :: 0.4
CN(CCCN1CCN(C(=O)CCC(C(=O)O)N2CCN3CCN(CC2)CC(=O)[O][61Cu][O]C(=O)C3)CC1)c1ccc2nccc(C(=O)NCC(=O)N3CC(F)(F)C[C@H]3C#N)c2c1 (some centres unmarked) [[^61Cu]Cu-NODAGA-FAPI-46] :: 1.5
CN(C(=O)CCC(=O)NCCNC(=O)CC[C@H](C(=O)O)N1CCN2CCN(CC1)CC(=O)[O][61Cu][O]C(=O)C2)c1ccc2nccc(C(=O)NCC(=O)N3CC(F)(F)C[C@H]3C#N)c2c1 [[^61Cu]Cu-NODAGA-F2] :: 0.5
N#C[C@@H]1CC(F)(F)CN1C(=O)CNC(=O)c1ccnc2ccc(NC(=O)CCC(=O)N3CCN(C(=O)CC[C@H](C(=O)O)N4CCN5CCN(CC4)CC(=O)[O][61Cu][O]C(=O)C5)CC3)cc12 [[^61Cu]Cu-NODAGA-F3] :: 0.9

Now turn to the next compound.
response.value for N#C[C@@H]1CC(F)(F)CN1C(=O)CNC(=O)c1ccnc2ccc(NC(=O)CCC(=O)NCCNC(=O)CC[C@H](C(=O)O)N3CCN4CCN(CC3)CC(=O)[O][61Cu][O]C(=O)C4)cc12 [[^61Cu]Cu-NODAGA-F1] (field: Biodistribution Blood) = 1.2

* * *

- Method Summary: Pharmacokinetics (biodistribution 1-24 h) in non-tumor bearing mice
- Type: in vivo
- Condition Parameters: female, BALB/c, mouse, pancreas, 200 umol, total radioactivity; 4 hours after injection, ^61Cu; read-out: Biodistribution Pancreas
- Procedure: The biodistribution at the investigate time points was performed as described in the Example 9. The data were combined with the results obtained from the groups of xenografts at 1 hour and 4 hours p.i., as the biodistribution in nude mice was the same as in the healthy mice. The results were expressed as described in the Example 10.
Readout Name: tissue uptake at 4 h (%ID/g)
Answers are plain numbers, in %ID/g.

response.value for C[C@@H](O)[C@@H]1NC(=O)[C@H](CCCCN)NC(=O)[C@@H](Cc2c[nH]c3ccccc23)NC(=O)[C@H](Cc2ccc(O)cc2)NC(=O)[C@@H](NC(=O)[C@@H](Cc2ccccc2)NC(=O)CCC(C(=O)O)N2CCN(CC(=O)O)CCN(CC(=O)O)CC2)CSSC[C@@H](C(=O)N[C@H](CO)[C@@H](C)O)NC1=O (single isomer, unassigned) [[^61/^64Cu]Cu-NODAGA-TOC, metal not drawn] (field: tissue uptake at 4 h) = 0.6

* * *

- Test system: HT-1080.hFAP and HT-1080.wt xenografts
- Method Summary: Quantitative biodistribution in HT-1080.hFAP and HT-1080.wt xenografted mice
- Format: in vivo
- Condition Parameters: 4 h p.i., HT-1080.hFAP and HT-1080.wt xenografts
Mark Met only when Biodistribution Pancreas stays strictly below 0.9 % IA/g. Values equal to the cut-off are Not met.

N#C[C@@H]1CC(F)(F)CN1C(=O)CNC(=O)c1ccnc2ccc(NC(=O)CCC(=O)NCCNC(=O)CC[C@H](C(=O)O)N3CCN4CCN(CC3)CC(=O)[O][61Cu][O]C(=O)C4)cc12 [[^61Cu]Cu-NODAGA-F1] :: Not met
CN(C(=O)CCC(=O)N1CCN(C(=O)CC[C@H](C(=O)O)N2CCN3CCN(CC2)CC(=O)[O][61Cu][O]C(=O)C3)CC1)c1ccc2nccc(C(=O)NCC(=O)N3CC(F)(F)C[C@H]3C#N)c2c1 [[^61Cu]Cu-NODAGA-F4] :: Met
CN(C(=O)CCC(=O)NCCNC(=O)CC[C@H](C(=O)O)N1CCN2CCN(CC1)CC(=O)[O][61Cu][O]C(=O)C2)c1ccc2nccc(C(=O)NCC(=O)N3CC(F)(F)C[C@H]3C#N)c2c1 [[^61Cu]Cu-NODAGA-F2] :: Met

Continue with the next compound.
Q) API: query returns whether the compound falls strictly under 0.9 % IA/g in Biodistribution Pancreas. Query: CN(CCCN1CCN(C(=O)CCC(C(=O)O)N2CCN3CCN(CC2)CC(=O)[O][61Cu][O]C(=O)C3)CC1)c1ccc2nccc(C(=O)NCC(=O)N3CC(F)(F)C[C@H]3C#N)c2c1 (some centres unmarked) [[^61Cu]Cu-NODAGA-FAPI-46]
A) Not met
